Source of measurements: patent US20190047966A1

# target: human histamine H4 receptor (Homo sapiens, UniProt Q9H3N8)
# Construct: purchased PerkinElmer Inc; host or cells: CHO-K1
# Sequence (Q9H3N8 whole entry): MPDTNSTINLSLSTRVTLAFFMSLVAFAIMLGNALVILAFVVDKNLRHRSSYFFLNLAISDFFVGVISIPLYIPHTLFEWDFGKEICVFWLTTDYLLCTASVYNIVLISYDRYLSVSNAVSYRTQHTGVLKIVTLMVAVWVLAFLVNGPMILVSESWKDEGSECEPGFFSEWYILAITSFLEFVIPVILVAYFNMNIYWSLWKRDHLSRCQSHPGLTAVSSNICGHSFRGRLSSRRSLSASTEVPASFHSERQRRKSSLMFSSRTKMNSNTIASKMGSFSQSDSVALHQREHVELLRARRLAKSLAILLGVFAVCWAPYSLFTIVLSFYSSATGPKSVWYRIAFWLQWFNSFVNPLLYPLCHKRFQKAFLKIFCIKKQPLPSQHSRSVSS
# test-protocol: Evaluation of Human H4 Receptor Affinity ([3H]histamine binding)
# test-context: inhibition constant Ki, CHO-K1 membrane preparation, read-out: Evaluation of H4 Receptor Affinity
# Excerpt: Test Example 2: Evaluation of Human H4 Receptor Affinity […]
pKi: −log10 of the molar value.
experimental-readout: pKi

Nc1nc2c(c(N3CCN(CCOC[C@H]4CC[C@H](C(=O)O)CC4)CC3)n1)CCc1cc(OCc3ccc(Cl)cc3)ccc1-2	> 7.00

Items follow; give pKi for each.
1. Nc1nc2c(c(N3CCN(CCO[C@H]4C[C@@H](C(N)=O)C4)CC3)n1)CCc1cc(OCc3ccc(OC(F)(F)F)cc3)ccc1-2
2. Nc1nc2c(c(N3CCN(CCOc4cccc(CC(=O)O)c4)CC3)n1)CCc1cc(OCc3ccc(Cl)cc3)ccc1-2
3. Nc1nc2c(c(N3CCN(CCO)CC3)n1)CCc1cc(OCc3ccccc3)ccc1-2
4. CN1CCN(c2nc(N)nc3c2CCc2cc(NS(=O)(=O)N4CCC(F)(F)CC4)ccc2-3)CC1
5. CN(C)[C@@H]1CCN(c2nc(N)nc3c2CCc2cc(OCc4ccccc4)ccc2-3)C1
6. CCS(=O)(=O)NCCCCN1CCN(c2nc(N)nc3c2CCc2cc(OCc4ccccc4)ccc2-3)CC1 [Example 105, bis(trifluoroacetate)]
7. CN1CCN(c2nc(N)nc3c2CCc2cc(NS(=O)(=O)c4ccc(Cl)nc4)ccc2-3)CC1
8. Nc1nc2c(c(N3CCN(CCOC[C@H]4CC[C@@H](C(=O)O)CC4)CC3)n1)CCc1cc(OCc3ccc(Cl)cc3)ccc1-2

1: > 7.00; 2: 6.30 to 7.00; 3: 6.30 to 7.00; 4: 6.30 to 7.00; 5: > 7.00; 6: 6.30 to 7.00; 7: 6.30 to 7.00; 8: > 7.00

---

Kindly state pKi for each of the entries shown.
# target: human histamine H4 receptor (Homo sapiens, UniProt Q9H3N8)
# Construct: purchased PerkinElmer Inc; host or cells: CHO-K1
# test-protocol: Evaluation of Human H4 Receptor Affinity ([3H]histamine binding)
# test-context: inhibition constant Ki, CHO-K1 membrane preparation, read-out: Evaluation of H4 Receptor Affinity
pKi: −log10 of the molar value.

// solved cases for pKi follow
Nc1nc2c(c(N3CCN(CCO[C@@H]4CO[C@@H](C(=O)O)C4)CC3)n1)CCc1cc(OCc3ccc(OC(F)(F)F)cc3)ccc1-2	> 7.00
Nc1nc2c(c(N3CCN(CCCOc4cccc(C(=O)O)c4)CC3)n1)CCc1cc(OCc3ccc(Cl)cc3)ccc1-2	6.30 to 7.00
Nc1nc2c(c(N3CCN(CCOC[C@H]4C[C@@H](C(=O)O)O4)CC3)n1)CCc1cc(OCc3ccc(OC(F)(F)F)cc3)ccc1-2 (relative stereo)	6.30 to 7.00
CC(OCCCCN1CCN(c2nc(N)nc3c2CCc2cc(OCc4ccc(Cl)cc4)ccc2-3)CC1)C(=O)O (stereo not drawn)	6.30 to 7.00
Nc1nc2c(c(N3CCN(CCOCC4(CCC(=O)O)COC4)CC3)n1)CCc1cc(OCc3ccc(Cl)cc3)ccc1-2	> 7.00

Items follow; give pKi for each.
1. COC(=O)CC1CN(C(=O)OCCN2CCN(c3nc(N)nc4c3CCc3cc(OCc5ccc(Cl)cc5)ccc3-4)CC2)C1
2. CN1CCN(c2nc(N)nc3c2CCc2cc(OCc4ccsc4)ccc2-3)CC1

1: 6.30 to 7.00; 2: > 7.00
